Method Description: qHTS assay for cell viability of HEK293 cells (AID 743288); note: % is set by controls: 0 for no effect and ±100 for the full control effect; nearly all actives have a fitted effect of over 50% in size
Experimental Context: ATP luminescence (CellTiter-Glo), 18 h; stronger effect = lower value
Inconclusive results are not listed. The source made the active and inactive calls. Calls come from the whole dose curve; as a rule, active = well fitted cell-killing curve with a large enough effect; inconclusive = small, poorly fitted or top-dose-only effect, or effect the other way; inactive = flat fitted curve, though single readings scatter.
Property Label: max response

// lookup max response for `C=CC(=O)CC` -3.35% (inactive)

Param item = `CCc1ccc(C(c2ccc(CC)cc2)C(Cl)Cl)cc1` ; retrieve measured max response. -18.5% (inactive)

Which max response is reported for this molecule? `Cc1c(N)cccc1Cl` 0.674% (inactive)

What value of max response has been recorded for this entry: CC(C)OCC1CO1 (configuration not stated) -0.12% (inactive)

What measured max response goes with `Cc1cccnc1` ? -8.35% (inactive)

Reported max response for `CCCCCCc1ccc(-c2ccc(C#N)cc2)cc1` : what is it? -6.02% (inactive)

Entry `CCCCNCC` : reported max response = ? -3.61% (inactive)

What value of measured max response is listed for `Oc1ccc(O)c2c(O)cccc12` ? -5% (inactive)

max response lookup needed for C=CC1CO1 (configuration not stated) , thanks. -1.41% (inactive)

Record request: max response value, item `O=[N+]([O-])c1cc(Cl)c(Cl)c(Cl)c1Cl` -2.48% (inactive)

What does the data say about its max response? Entry: `CC(=O)Nc1cccc(C)c1` 2.07% (inactive)

Give the measured max response of CCC(Cl)CC(Cl)C(Cl)C(Cl)C(Cl)C(C)Cl (configuration not stated) . 0.239% (inactive)

Please give the measured max response for this molecule: `Nc1ccc(N)c(Cl)c1` -4.85% (inactive)

Could you tell me which max response is on file for `c1ccc(CSCc2ccccc2)cc1` ? 1.27% (inactive)

Entry `O=C(O)/C=C/c1ccc(/C=C/C(=O)O)cc1` : reported max response = ? -14.7% (inactive)

Consider the molecule shown here: `c1c[nH]cn1` What is its recorded max response? -0.708% (inactive)

Dear colleague, I am looking for the recorded max response of the following molecule: `C1CCCNCC1` -3.87% (inactive)

Please give the measured max response for this molecule: `O=CC(=O)c1ccccc1` -4.94% (inactive)

What measured max response goes with `O=C(O)c1cc(N=Nc2ccc([N+](=O)[O-])cc2)ccc1O` ? 6.02% (inactive)

Using the record for `CC(/C=C/C=C(C)/C=C/C(=O)O)=C\C=C\C=C(C)\C=C\C=C(C)\C=C\C(=O)O` , report its max response. -0.748% (inactive)

Reported max response for `Oc1cc(Cl)cc(Cl)c1Cl` : what is it? -4.35% (inactive)

Can you look up the measured max response of `CC(=O)c1ccc(Cl)c(Cl)c1Cl` for me? 4.03% (inactive)

Which value of max response has been reported for `NC(=O)Nc1nc2ccccc2[nH]1` in the records? -5.65% (inactive)

Item under review: `Clc1nc2ccccc2nc1Cl` . Reported max response? -15.1% (inactive)

Which max response is listed for `Cc1ccc(N)cc1[N+](=O)[O-]` ? 4.69% (inactive)

For the molecule shown here, CCCCC(CC)COCCCN (configuration not stated) , give the reported max response. 10.2% (inactive)

Would you kindly share the measured max response for `O=C(Cl)c1ccc([N+](=O)[O-])cc1` ? 0.724% (inactive)

Requested field: max response. Item: `COc1ccc(C)cc1N` -15% (inactive)

Would you mind telling me what max response value was observed for `O=c1[nH]ncc2ccccc12` ? 0.756% (inactive)

If you can, please state the reported max response value of `Nc1ccc(-c2ccc(N)c(O)c2)cc1O` . -18.5% (inactive)

// query max response value for entry `Cc1cc2nc(N)sc2cc1C` -12.3% (inactive)

Given the molecule `NC(=O)c1ccc([N+](=O)[O-])cc1` , what is its reported max response? 4.95% (inactive)

Suppose we examine the molecule `Nc1cnn([C@@H]2O[C@H](CO)[C@@H](O)[C@H]2O)c(=O)n1` ; what max response value has been reported? 3.95% (inactive)

Can you look up the measured max response of CCCCC(CC)COP(=O)(OCC(CC)CCCC)OCC(CC)CCCC (configuration not stated) for me? -14.3% (inactive)

For the molecule shown here, `C/C=C/C=C/C=O` , give the reported max response. -1.13% (inactive)

Which value of max response has been reported for `CCNC(=S)NCC` in the records? -6.53% (inactive)

Suppose we examine the molecule CCOC(=O)C1OC1c1ccccc1 (configuration not stated) ; what max response value has been reported? -1.14% (inactive)

Could you tell me which max response is on file for C=CC(C)(O)CCCC(C)CCCC(C)CCCC(C)C (configuration not stated) ? -8.32% (inactive)

Tell me the measured max response of `Nc1ccc(N=Nc2ccccc2)c(N)c1` , please. -22.9% (inactive)

Please report the recorded max response for CCCCCCCCC1CO1 (configuration not stated) . 4.27% (inactive)

Sample `C=C(C#N)C(=O)OCC` — what was its max response? -12.8% (inactive)

Given the molecule `O=C1c2ccccc2C(=O)C1(O)O` , what is its reported max response? -12.1% (inactive)

Which max response is reported for this molecule? `CCN(CC)c1ccc2c(C)cc(=O)oc2c1` -1.15% (inactive)

State the recorded max response for this entry: `O=[N+]([O-])c1ccc(F)cc1F` 3.6% (inactive)

Quick one: max response for O=C(OCC1CO1)C1CCCCC1C(=O)OCC1CO1 (configuration not stated) ? -26.2% (inactive)

Name the reported max response value associated with the molecule `CC(C)COC(=O)COc1cc(Cl)c(Cl)cc1Cl` 6.88% (inactive)

Fill in the blank: the reported max response of `Oc1cc2c(cc1O)[C@H]1c3ccc(O)c(O)c3OC[C@@]1(O)C2` is ____. -28.5% (inactive)
